system: SK-MEL-28; assay: NCI tumour cell line growth inhibition, 48 h
Calls of active or inactive are those of the source. Cut-off read from the data, not from the text of the source: active = GI50 up to about 1.1 µM and inactive = higher.
observable: GI50

{"columns": ["compound", "GI50"],
 "data": [
  ["C=CCC1(O)CC(n2cc(C)c(=O)[nH]c2=O)OC1CO[Si](C)(C)C(C)(C)C (stereo not given)", "68.9 µM (inactive)"],
  ["Cc1cc(-c2ccc(C(=O)O)[nH]2)on1", "> 100 µM (inactive)"],
  ["N#CC1=C(N)N(/N=C/c2ccccc2)C(c2ccccc2)C1(C#N)C#N (stereo not given)", "4.79 µM (inactive)"],
  ["Cc1nc(=O)[nH]c2c1C(=O)N(C(C)C)C(NC(C)C)S2 (stereo not given)", "> 100 µM (inactive)"],
  ["O=C1OCC/C1=C/c1ccc(/N=N/c2c(O)ccc3ccccc23)cc1", "18.9 µM (inactive)"]
]}

Entry CCN(CC)CCOC(c1ccccc1)c1ccccc1.CCOC(=O)Nc1ccc(S(=O)(=O)OC)cc1.CCOC(=O)Nc1ccc(S(=O)(=O)OC)cc1.Nc1ccc(C(=O)O)c(O)c1 : GI50 on SK-MEL-28 = > 100 µM (inactive)

Reported GI50 (SK-MEL-28) for entry O=C1C2CCN(CC2)C1CN1CCOCC1 (stereo not given) is 3.79 µM (inactive)

Simply: C[n+]1c2ccccc2c(C(=O)Nc2ccc(S(=O)(=O)N=C(N)N)cc2)c2ccccc21 , SK-MEL-28, GI50 = > 100 µM (inactive)

Let me check: COc1cc(N2C(=O)C(=O)C3(CCCCC3)C2=O)cc(OC)c1OC , system SK-MEL-28, measured GI50 is > 100 µM (inactive)

Reading of GI50 for O=C1CSC(c2cccc(Oc3ccccc3)c2)N1c1ccc(Cl)cc1 (stereo not given) with SK-MEL-28: 41.2 µM (inactive)

----------
system: NCI-H522; assay: NCI tumour cell line growth inhibition, 48 h
Active and inactive are the calls of the source. No stated cut-off is given here; in the data, active = GI50 up to about 1.1 µM and inactive = higher.
observable: GI50

Some compounds with known GI50 results, for comparison:
{"columns": ["compound", "GI50"],
 "data": [
  ["O=C(CCN1CC2CCC(CC2)C1)c1cccs1", "17.4 µM (inactive)"],
  ["Cc1n[nH]c(=S)n1/N=C/c1ccc(-c2ccc(Cl)cc2)o1", "> 100 µM (inactive)"],
  ["O=C1C(c2c(O)[nH]c3ccccc23)=Nc2ccc(Br)cc21", "28.5 µM (inactive)"],
  ["O=C1CSC2(CC(/C=C/c3ccccc3Br)=NN2c2cccc(S(=O)(=O)O)c2)N1c1nc2ccccc2s1 (configuration not stated)", "52 µM (inactive)"],
  ["Cc1cccc(/N=C2\\NC(=O)C(CC(=O)Nc3ccc(C)cc3C)S2)c1 (configuration not stated)", "64.3 µM (inactive)"]
]}

For this compound ( CNC(=O)Nn1c(SC)nc2ccccc21 ), measured GI50 is > 100 µM (inactive)

According to the records, this compound O=C(N/C=C1\C(=O)Oc2ccccc2C1=O)Oc1ccccc1 displays GI50 of 25 µM (inactive)

Record Cc1cc(S(=O)(=O)Nc2nc3ccsc3c(=O)n2N)c(S)cc1Cl . Reported GI50: 44 µM (inactive)

What the record says about COC(=O)C1=C(C)N(NC(=O)OC(C)(C)C)C(=O)C1=P(c1ccccc1)(c1ccccc1)c1ccccc1 : GI50 is 75.5 µM (inactive)

Value of GI50 reported for the compound COc1ccc2[nH]c3c(C)c4cc[n+](C)cc4c(C)c3c2c1 is 0.562 µM (active)

Data origin, for the record: ChEMBL document CHEMBL1201862
